tested on: NALM-16; assay: selective drug sensitivity score (sDSS, relative to normal bone marrow) (sDSS (score)); higher = more potent and effective on the cell line relative to normal bone marrow cells; settings: 72 h;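 also: ALL cell lines in 384-well plates, five doses spanning 10,000-fold, each plate scaled between vehicle and 100 µmol/L benzalkonium chloride controls, sDSS an adapted area-under-curve metric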
Grouping key: selective drug sensitivity score. Bins: small value: < -2; mid value: ≥ -2 and < 2; large value: ≥ 2

| compound | group label |
| --- | --- |
| CNc1nc(-c2ccc3c(N)n[nH]c3c2)cc(N2C[C@@H](C(=O)NC3CCCCC3)CC[C@H]2C)n1 (top concentration 10000 nM) | large value |

Band for the recorded selective drug sensitivity score of CC(C)c1cc(C(=O)N2Cc3ccc(CN4CCN(C)CC4)cc3C2)c(O)cc1O [Onalespib] (top concentration 2500 nM) ?
mid value

Band of COC[C@H](NC(=O)c1cnc(C)s1)C(=O)N[C@@H](COC)C(=O)N[C@@H](Cc1ccccc1)C(=O)[C@@]1(C)CO1 [Oprozomib] (top concentration 2500 nM) ?
mid value

Exam item: assign Cc1nc(Nc2ncc(C(=O)Nc3c(C)cccc3Cl)s2)cc(N2CCN(CCO)CC2)n1 [Dasatinib] (top concentration 1000 nM) to the correct category.
small value

Exercise: read the entry COc1cc2c(cc1OCCCN1CCCC1)N=C(N)C21CCC1 [A-366] (top concentration 25000 nM) and state which class it falls under.
mid value

Sort COc1cccc(OCCCN)c1-c1cc(Nc2cnc(C#N)cn2)n[nH]1 [Prexasertib] (top concentration 10000 nM) into one of the categories.
large value

Tag the class for NCC(=O)Nc1ccc(-n2nc(C(F)(F)F)cc2-c2ccc3c(ccc4ccccc43)c2)cc1 (top concentration 25000 nM)
large value

---

test system: SEM cells; test: selective drug sensitivity score (sDSS, relative to normal bone marrow) (sDSS (score)); higher = more potent and effective on the cell line relative to normal bone marrow cells; conditions: 72 h
Please note: Yes applies when selective drug sensitivity score is 5 or greater, and No applies otherwise.

| compound | group label |
| --- | --- |
| COC(=O)c1ccc2c(c1)NC(=O)/C2=C(\Nc1ccc(N(C)C(=O)CN2CCN(C)CC2)cc1)c1ccccc1 [Nintedanib] (top concentration 10000 nM) | Yes |
| O=C(c1cc(Cc2n[nH]c(=O)c3ccccc23)ccc1F)N1CCN(C(=O)C2CC2)CC1 [Olaparib] (top concentration 10000 nM) | Yes |
| CNc1nc(-c2ccc3c(N)n[nH]c3c2)cc(N2C[C@@H](C(=O)NC3CCCCC3)CC[C@H]2C)n1 (top concentration 10000 nM) | No |
| C=C(c1ccc(C(=O)O)cc1)c1cc2c(cc1C)C(C)(C)CCC2(C)C [Bexarotene] (top concentration 10000 nM) | No |
| Cc1ccc(C(=O)Nc2cccc(C(F)(F)F)c2)cc1Nc1nc(-c2cccnc2)nc2c1cnn2C [NVP-BHG712] (top concentration 10000 nM) | No |

Threshold query (selective drug sensitivity score >= 5) on C=C1C[C@@H]2[C@H](CC[C@]3(C)C(=O)CC[C@@H]23)[C@@]2(C)C=CC(=O)C=C12 [Exemestane] (top concentration 10000 nM)
No

---

tested on: ALL-PO; assay: selective drug sensitivity score (sDSS, relative to normal bone marrow) (sDSS (score)); higher = more potent and effective on the cell line relative to normal bone marrow cells; conditions: 72 h
Please use t whenever selective drug sensitivity score is not below 3, and f whenever it is.

Here are 5 molecules together with their reported answers.
| molecule | group label |
| --- | --- |
| Cc1ccc(C(=O)Nc2ccc(Oc3cc4cnn(C)c4cc3-c3cn[nH]c3)c(F)c2)c(=O)n1-c1ccc(F)cc1 [Merestinib] (top concentration 1000 nM) | t |
| Nc1nc(F)nc2c1ncn2[C@@H]1O[C@H](CO)[C@@H](O)[C@@H]1O [Fludarabine] (top concentration 10000 nM) | f |
| CC(C)c1cc(-c2n[nH]c(=O)n2-c2ccc3c(ccn3C)c2)c(O)cc1O [Ganetespib] (top concentration 1000 nM) | t |
| COc1cccc2c1C(=O)c1c(O)c3c(c(O)c1C2=O)C[C@@](O)(C(C)=O)C[C@@H]3O[C@H]1C[C@H](N)[C@H](O)[C@H](C)O1 [Daunorubicin] (top concentration 1000 nM) | f |
| CN(C)CCOc1ccc(/C(=C(/CCCl)c2ccccc2)c2ccccc2)cc1 [Toremifene] (top concentration 10000 nM) | t |

Now look at this one.
Is the recorded value of selective drug sensitivity score equal to or greater than 3 for this molecule? CNC(=O)c1nn(C)c2c1C(C)(C)Cc1cnc(Nc3ccc(N4CCN(C)CC4)cc3)nc1-2 [Milciclib] (top concentration 10000 nM)
t

---

Each entry below carries its recorded selective drug sensitivity score.
test system: PEER; assay: selective drug sensitivity score (sDSS, relative to normal bone marrow) (sDSS (score)); higher = more potent and effective on the cell line relative to normal bone marrow cells; conditions: 72 h

Reference set, count: 4
| compound | selective drug sensitivity score |
| --- | --- |
| CCCN(CCC)C(=O)C1=Cc2ccc(-c3ccc(C(=O)N4CCCC4)cc3)cc2N=C(N)C1 [Motolimod] (top concentration 10000 nM) | -3.18 |
| CC(C)(C)c1cnc(CSc2cnc(NC(=O)C3CCNCC3)s2)o1 [SNS-032] (top concentration 10000 nM) | -4.94 |
| Cc1sc2c(c1C)C(c1ccc(Cl)cc1)=N[C@@H](CC(=O)Nc1ccc(O)cc1)c1nnc(C)n1-2 [Birabresib] (top concentration 10000 nM) | -0.08 |
| Cc1ccc(C(=O)Nc2cccc(C(F)(F)F)c2)cc1Nc1nc(-c2cccnc2)nc2c1cnn2C [NVP-BHG712] (top concentration 10000 nM) | 8.18 |

Next, consider the following compound.
GET /values?readout=selective drug sensitivity score&item= CCN(CC)CCCC(C)Nc1ccnc2cc(Cl)ccc12 (stereo not given) [Chloroquine] (top concentration 100000 nM)
-0.94

---

test system: 697; test: selective drug sensitivity score (sDSS, relative to normal bone marrow) (sDSS (score)); higher = more potent and effective on the cell line relative to normal bone marrow cells; settings: 72 h
Here, each record is paired with measured selective drug sensitivity score data.
Note: the reply should be a number with no unit written.

A selection of reference data follows.
| compound | endpoint label | test result |
| --- | --- | --- |
| C[C@]1(c2nc3c(C(N)=O)cccc3[nH]2)CCCN1 [Veliparib] (top concentration 10000 nM) | selective drug sensitivity score | -1.08 |
| CC(C)Cn1cnc2c(N)nc3ccccc3c21 [Imiquimod] (top concentration 2500 nM) | selective drug sensitivity score | 0.4 |
| CCc1nc(C(N)=O)c(Nc2ccc(N3CCC(N4CCN(C)CC4)CC3)c(OC)c2)nc1NC1CCOCC1 [Gilteritinib] (top concentration 1000 nM) | selective drug sensitivity score | 1.88 |

// returns reported selective drug sensitivity score for input Cc1cc(C(C)Nc2ccccc2)c2nc(N3CCOCC3)cc(=O)n2c1 (stereo unspecified) [TGX-221] (top concentration 10000 nM)
0.16

// query selective drug sensitivity score value for entry Cn1nccc1Nc1nccc(-c2ccn([C@H](CO)c3ccc(Cl)c(F)c3)c(=O)c2)n1 [Ravoxertinib] (top concentration 10000 nM)
1.5

For COc1cccc2c1C(=O)c1c(O)c3c(c(O)c1C2=O)C[C@@](O)(C(=O)CO)C[C@@H]3O[C@H]1C[C@H](N)[C@H](O)[C@H](C)O1 [Doxorubicin] (top concentration 1000 nM) , what is its reported selective drug sensitivity score?
9.88

---

system: PF-382; test: selective drug sensitivity score (sDSS, relative to normal bone marrow) (sDSS (score)); higher = more potent and effective on the cell line relative to normal bone marrow cells; conditions: 72 h
endpoint label: selective drug sensitivity score
Answer with a number only.

Consider the following illustrative entries.
| compound | measurement target | test result |
| --- | --- | --- |
| Nc1ccn([C@@H]2O[C@H](CO)[C@@H](O)[C@@H]2O)c(=O)n1 [Cytarabine] (top concentration 10000 nM) | PF-382 | 19.1 |
| O=C(Nc1cc(Oc2cc(F)c(NC(=O)C3(C(=O)Nc4ccc(F)cc4)CC3)cc2F)ccn1)C1CC1 [Altiratinib] (top concentration 10000 nM) | PF-382 | 0.64 |
| C#Cc1cccc(Nc2ncnc3cc4c(cc23)OCCOCCOCCO4)c1 [Icotinib] (top concentration 10000 nM) | PF-382 | 0.5 |
| Cn1c(Nc2ccc(C(F)(F)F)cc2)nc2cc(Oc3ccnc(-c4ncc(C(F)(F)F)[nH]4)c3)ccc21 [NVP-RAF265] (top concentration 1000 nM) | PF-382 | 1.48 |
| O=C(Nc1ccncc1)C(=O)c1cn(Cc2ccc(Cl)cc2)c2ccccc12 [Indibulin] (top concentration 10000 nM) | PF-382 | 4.74 |

Then this compound:
Short answer please: selective drug sensitivity score, PF-382, entry C=CCN(/C=C1/C(=O)O[C@H](COC)[C@@]2(C)C1=C(O)C(=O)C1=C2[C@H](OC(C)=O)C[C@]2(C)C(=O)CC[C@@H]12)CC=C [Sonolisib] (top concentration 10000 nM)
-0.76
